Listing of recorded Ki by entry.
# Target entity: Serine protease 1 (Homo sapiens, UniProt P07477)
# Sequence (P07477 whole entry): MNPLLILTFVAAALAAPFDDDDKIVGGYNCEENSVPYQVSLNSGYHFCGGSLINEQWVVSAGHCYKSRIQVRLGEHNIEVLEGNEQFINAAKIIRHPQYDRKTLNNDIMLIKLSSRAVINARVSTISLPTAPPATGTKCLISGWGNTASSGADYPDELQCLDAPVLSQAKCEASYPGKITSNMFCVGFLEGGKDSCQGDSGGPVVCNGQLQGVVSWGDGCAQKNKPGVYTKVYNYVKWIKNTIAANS

Example entries begin here.
Compound	Target entity	Ki
O=C(NCC1CCc2n[nH]cc2C1)[C@@H]1CCCN1C(=O)[C@@H](CC1CCCCC1)NS(=O)(=O)Cc1ccccc1 (stereo not given in full)	Serine protease 1 (Homo sapiens, UniProt P07477)	> 68.3 µM
Nc1ncc2c(n1)CCC(NC(=O)[C@@H]1CCCN1C(=O)[C@@H](CC1CCCCC1)NS(=O)(=O)Cc1ccccc1)C2 (stereo not given in full)	Serine protease 1 (Homo sapiens, UniProt P07477)	> 68.3 µM
O=C(NC1CCc2c[nH]cc2C1)[C@@H]1CCCN1C(=O)[C@@H](CC1CCCCC1)NS(=O)(=O)Cc1ccccc1 (stereo not given in full)	Serine protease 1 (Homo sapiens, UniProt P07477)	416 µM
Nc1ncc2c(n1)CCC(CNC(=O)[C@@H]1CCCN1C(=O)[C@H](N)Cc1ccc(Cl)c(Cl)c1)C2 (stereo not given in full)	Serine protease 1 (Homo sapiens, UniProt P07477)	> 68.3 µM

Q. What measured Ki goes with Nc1ncc2c(n1)CCC(CNC(=O)[C@@H]1CCCN1C(=O)[C@H](N)C(c1ccccc1)c1ccccc1)C2 (stereo not given in full) ?
A. 409 µM

====

# Target entity: Prothrombin (Homo sapiens)
Measure name: pKi
On this scale, pKi is minus log10 of a concentration expressed in M (mol/L).

Compound	pKi
O=C(NC1CCc2n[nH]cc2C1)[C@@H]1CCCN1C(=O)[C@@H](CC1CCCCC1)NS(=O)(=O)Cc1ccccc1 (some centres undefined)	5.27
O=C(NC1CCc2c[nH]cc2C1)[C@@H]1CCCN1C(=O)[C@@H](CC1CCCCC1)NS(=O)(=O)Cc1ccccc1 (some centres undefined)	4.56

Kindly review the next compound as well.
Q. What measured pKi goes with Nc1ncc2c(n1)CCC(CNC(=O)[C@@H]1CCCN1C(=O)[C@H](N)C(c1ccccc1)c1ccccc1)C2 (some centres undefined) ?
A. 4.89

====

Below are compounds with their Ki as measured on Coagulation factor X (Homo sapiens, UniProt P00742).
Sequence (P00742 41-179 limits assumed): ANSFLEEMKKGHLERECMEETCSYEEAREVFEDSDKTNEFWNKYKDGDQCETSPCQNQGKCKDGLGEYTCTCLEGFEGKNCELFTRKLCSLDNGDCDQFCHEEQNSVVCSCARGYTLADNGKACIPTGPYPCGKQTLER
Sequence (P00742 235-488 limits assumed): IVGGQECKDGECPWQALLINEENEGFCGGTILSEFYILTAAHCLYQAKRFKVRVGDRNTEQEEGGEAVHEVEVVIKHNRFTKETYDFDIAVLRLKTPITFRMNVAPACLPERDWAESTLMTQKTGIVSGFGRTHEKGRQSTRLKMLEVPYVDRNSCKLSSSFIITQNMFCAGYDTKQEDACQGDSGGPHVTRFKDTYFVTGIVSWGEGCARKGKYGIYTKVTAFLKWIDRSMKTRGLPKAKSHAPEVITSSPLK

Compound	Ki
N[C@H](Cc1ccc(Cl)c(Cl)c1)C(=O)N1CCC[C@H]1C(=O)NCC1CCc2n[nH]cc2C1 (some centres not stated)	> 75.4 µM
O=C(NC1CCc2n[nH]cc2C1)[C@@H]1CCCN1C(=O)[C@@H](CC1CCCCC1)NS(=O)(=O)Cc1ccccc1 (some centres not stated)	> 75.4 µM
Nc1ncc2c(n1)CCC(NC(=O)[C@@H]1CCCN1C(=O)[C@@H](CC1CCCCC1)NS(=O)(=O)Cc1ccccc1)C2 (some centres not stated)	> 75.4 µM
CC(C)(C)OC(=O)N[C@H](Cc1ccc(Cl)c(Cl)c1)C(=O)N1CCC[C@H]1C(=O)NCC1CCc2n[nH]cc2C1 (some centres not stated)	> 75.4 µM

Q. What measured Ki goes with O=C(NCC1CCc2n[nH]cc2C1)[C@@H]1CCCN1C(=O)[C@@H](CC1CCCCC1)NS(=O)(=O)Cc1ccccc1 (some centres not stated) ?
A. > 75.4 µM

Q. Query O=C(O)CN[C@H](CC1CCCCC1)C(=O)N1CCC[C@H]1C(=O)NCC1CCc2n[nH]cc2C1 (some centres not stated) next
A. 84.8 µM

Q. Query Nc1ncc2c(n1)CCC(CNC(=O)[C@@H]1CCCN1C(=O)[C@H](N)C(c1ccccc1)c1ccccc1)C2 (some centres not stated) next
A. 57.6 µM

====

# Target entity: Thrombin & trypsin (Homo sapiens) (UniProt P00734+P07477+P07478+P35030)
# Protocol text: Selectivity ratio of thrombin to trypsin
# Type: protein assay
Measure name: Ratio

Compound	Data value
O=C(NCC1CCc2n[nH]cc2C1)[C@@H]1CCCN1C(=O)[C@@H](CC1CCCCC1)NS(=O)(=O)Cc1ccccc1 (some centres undefined)	> 478
CC(C)(C)OC(=O)N[C@H](Cc1ccc(Cl)c(Cl)c1)C(=O)N1CCC[C@H]1C(=O)NCC1CCc2n[nH]cc2C1 (some centres undefined)	> 21
O=C(NC1CCc2n[nH]cc2C1)[C@@H]1CCCN1C(=O)[C@@H](CC1CCCCC1)NS(=O)(=O)Cc1ccccc1 (some centres undefined)	> 13

Kindly review the next compound as well.
Q. What measured Ratio goes with N[C@H](Cc1ccc(Cl)c(Cl)c1)C(=O)N1CCC[C@H]1C(=O)NCC1CCc2n[nH]cc2C1 (some centres undefined) ?
A. > 99
